Kindly supply the reported Ki values for the records listed here.
Target: human recombinant 5-HT2C receptor (Homo sapiens)
Sequence (P28335 33-458): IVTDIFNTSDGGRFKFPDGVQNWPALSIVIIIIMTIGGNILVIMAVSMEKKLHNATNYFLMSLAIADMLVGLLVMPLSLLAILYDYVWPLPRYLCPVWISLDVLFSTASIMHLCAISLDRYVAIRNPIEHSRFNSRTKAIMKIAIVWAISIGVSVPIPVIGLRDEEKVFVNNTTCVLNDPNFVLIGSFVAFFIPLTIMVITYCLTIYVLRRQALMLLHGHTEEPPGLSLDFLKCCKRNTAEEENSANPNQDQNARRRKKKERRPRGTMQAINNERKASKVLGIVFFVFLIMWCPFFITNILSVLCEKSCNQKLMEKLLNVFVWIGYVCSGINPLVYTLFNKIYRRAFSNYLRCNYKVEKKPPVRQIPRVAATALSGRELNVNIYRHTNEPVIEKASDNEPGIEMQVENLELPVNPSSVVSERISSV
Assay: 5-HT2C receptor radioligand binding ([3H]mesulergine, CHO membranes);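 also: competitive displacement of the tritiated ligand, using membranes from CHO cells stably transfected with the human receptor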
Give the number; µM is assumed, so skip it.

Which measured Ki value corresponds to Clc1ccc(-c2nn(Cc3cccs3)c3c2CCNCC3)cc1 ?
0.15

Which measured Ki value corresponds to Fc1ccc(Cn2nc(-c3ccc(Cl)cc3)c3c2CCNCC3)cc1 ?
0.32

Which measured Ki value corresponds to CC1CN(Cc2ccccc2)CCc2c1nn(C(C)C)c2-c1ccc(F)cc1 (stereo not drawn) ?
2.2
